assay details: self-splicing fitness, log relative to wild type (ln ratio); higher = more splicing; Tetrahymena group I intron in knt gene, E. coli kanamycin selection, DiMSum; sequences stand for … in CUCUCU…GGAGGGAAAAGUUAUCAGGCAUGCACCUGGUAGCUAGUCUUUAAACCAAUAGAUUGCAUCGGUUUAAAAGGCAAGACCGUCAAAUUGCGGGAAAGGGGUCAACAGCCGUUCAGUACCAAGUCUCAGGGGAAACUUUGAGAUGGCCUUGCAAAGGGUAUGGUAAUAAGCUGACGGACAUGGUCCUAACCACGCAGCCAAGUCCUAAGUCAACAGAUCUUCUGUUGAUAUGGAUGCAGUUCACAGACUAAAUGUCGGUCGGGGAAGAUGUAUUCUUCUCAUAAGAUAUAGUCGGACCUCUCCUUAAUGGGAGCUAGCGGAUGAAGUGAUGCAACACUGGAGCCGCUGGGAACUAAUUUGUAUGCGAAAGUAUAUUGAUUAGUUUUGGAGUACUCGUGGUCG;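 note: selection with 25 µg/mL kanamycin versus none on LB agar overnight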
run conditions: 30 °C

{"record sequence": "ACCUAGCAAUAUUACGCGCG", "self-splicing fitness (ln)": -0.971}
{"record sequence": "GCCAAGCAAUAUUACGCGUC", "self-splicing fitness (ln)": -1.31}
{"record sequence": "UCCCAGCAAUAUUACGGCCG", "self-splicing fitness (ln)": -3.44}
{"record sequence": "AACGAGCAAUAUUACGACUU", "self-splicing fitness (ln)": -0.000737}
{"record sequence": "UCCAAGCAAUAUUACGUCUG", "self-splicing fitness (ln)": -4}
{"record sequence": "UCACAGCAAUAUUACGUUAA", "self-splicing fitness (ln)": -2.66}
{"record sequence": "CAGAAGCAAUAUUACGAGAC", "self-splicing fitness (ln)": -1.15}
{"record sequence": "AGGGAGCAAUAUUACGCGGC", "self-splicing fitness (ln)": -1.89}
{"record sequence": "GCAGAGCAAUAUUACGUGAC", "self-splicing fitness (ln)": -2.91}
{"record sequence": "CCGCAGCAAUAUUACGAACU", "self-splicing fitness (ln)": -1.92}
{"record sequence": "GGAUAGCAAUAUUACGCGCU", "self-splicing fitness (ln)": -2.14}
{"record sequence": "CGCUAGCAAUAUUACGAUAA", "self-splicing fitness (ln)": -4.27}
{"record sequence": "GUAAAGCAAUAUUACGAUCG", "self-splicing fitness (ln)": -0.724}
{"record sequence": "GGGUAGCAAUAUUACGUUUA", "self-splicing fitness (ln)": -0.585}
{"record sequence": "CGGGAGCAAUAUUACGCAAU", "self-splicing fitness (ln)": -3.15}
{"record sequence": "UAAGAGCAAUAUUACGCUUG", "self-splicing fitness (ln)": -2.66}
{"record sequence": "CGCUAGCAAUAUUACGACUC", "self-splicing fitness (ln)": -1.4}
{"record sequence": "GUGGAGCAAUAUUACGGUAG", "self-splicing fitness (ln)": -1.7}
{"record sequence": "GGAUAGCAAUAUUACGAAAC", "self-splicing fitness (ln)": -1.67}
{"record sequence": "CCAGAGCAAUAUUACGGCUC", "self-splicing fitness (ln)": -2.69}
{"record sequence": "CUUUAGCAAUAUUACGUGUA", "self-splicing fitness (ln)": -3.34}
{"record sequence": "CUACAGCAAUAUUACGCCCA", "self-splicing fitness (ln)": -2.99}
{"record sequence": "GCACAGCAAUAUUACGGGCA", "self-splicing fitness (ln)": -1.84}
{"record sequence": "GGAGAGCAAUAUUACGUGCG", "self-splicing fitness (ln)": -1.7}
{"record sequence": "GGCCAGCAAUAUUACGAGUU", "self-splicing fitness (ln)": -0.659}
{"record sequence": "CCCUAGCAAUAUUACGCACU", "self-splicing fitness (ln)": -2.43}
{"record sequence": "CCCCAGCAAUAUUACGGCCA", "self-splicing fitness (ln)": -3.1}
{"record sequence": "CAGCAGCAAUAUUACGGCUG", "self-splicing fitness (ln)": -4.48}
{"record sequence": "UUACAGCAAUAUUACGCUUG", "self-splicing fitness (ln)": -1.23}
{"record sequence": "GACCAGCAAUAUUACGCACU", "self-splicing fitness (ln)": -0.104}
{"record sequence": "GCUAAGCAAUAUUACGUCGC", "self-splicing fitness (ln)": -2.46}
{"record sequence": "AUUAAGCAAUAUUACGAAAA", "self-splicing fitness (ln)": -1.27}
{"record sequence": "UUCUAGCAAUAUUACGGCUC", "self-splicing fitness (ln)": -1.38}
{"record sequence": "CCGAAGCAAUAUUACGUUUC", "self-splicing fitness (ln)": -3.56}
